Test system: HIV-1
assay comment: microbe, parasite or virus in culture
Type: cell-based, HIV-1 (H9IIIB or NL4-3 virus)
study conditions: Human immunodeficiency virus 1, read-out: WILD TYPE CELL ASSAY Viking IP (0% NHS) (nM)

- compound: "CCN1C[C@@H]2C[C@@H](N3CCCC3)c3c(C(=O)NCc4cccc(Cl)c4F)c(=O)c(O)c(n32)C1=O [Compound 42]"
  qualifying sign: "="
  IC50 / nM: 5
- compound: "CCN1C[C@@H]2C[C@@H](NC)c3c(C(=O)NCc4ccc(F)cc4F)c(=O)c(O)c(n32)C1=O [Compound 5]"
  qualifying sign: "="
  IC50 / nM: 2
- compound: "CCN[C@@H]1C[C@@H]2CN(CC)C(=O)c3c(O)c(=O)c(C(=O)NCc4ccc(F)c(Cl)c4F)c1n32 [Compound 16]"
  qualifying sign: ">"
  IC50 / nM: 42000
- compound: "CCN1C[C@@H]2C[C@@H](N3CCC3)c3c(C(=O)NCc4cccc(Cl)c4F)c(=O)c(O)c(n32)C1=O [Compound 40]"
  qualifying sign: "="
  IC50 / nM: 5
- compound: "CCN[C@@H]1C[C@H]2CN(CC)C(=O)c3c(O)c(=O)c(C(=O)NCc4ccc(F)cc4F)c1n32 [Compound 9]"
  qualifying sign: "="
  IC50 / nM: 1
- compound: "CCN1C[C@@H]2C[C@@H](NC(C)=O)c3c(C(=O)NCc4ccc(F)cc4F)c(=O)c(O)c(n32)C1=O [Compound 56]"
  qualifying sign: "="
  IC50 / nM: 2
- compound: "CCN1C[C@H]2C[C@H](NC)c3c(C(=O)NCc4ccc(F)cc4F)c(=O)c(O)c(n32)C1=O [Compound 7]"
  qualifying sign: "="
  IC50 / nM: 2
- compound: "CCCN[C@H]1C[C@@H]2CN(CC)C(=O)c3c(O)c(=O)c(C(=O)NCc4ccc(F)cc4F)c1n32 [Compound 21]"
  qualifying sign: "="
  IC50 / nM: 17
- compound: "CCN1C[C@H]2C[C@H](NS(=O)(=O)c3ccc(C)cc3)c3c(C(=O)NCc4ccc(F)cc4F)c(=O)c(O)c(n32)C1=O [Compound 53]"
  qualifying sign: "="
  IC50 / nM: 34
- compound: "CCN1C[C@@H]2C[C@@H](N(C)C)c3c(C(=O)NCc4ccc(F)cc4)c(=O)c(O)c(n32)C1=O [Compound 39]"
  qualifying sign: "="
  IC50 / nM: 3
- compound: "CCN1C[C@H]2C[C@@H](NCc3ccccc3)c3c(C(=O)NCc4ccc(F)cc4F)c(=O)c(O)c(n32)C1=O [Compound 26]"
  qualifying sign: "="
  IC50 / nM: 32
- compound: "CCN[C@H]1C[C@@H]2CN(CC)C(=O)c3c(O)c(=O)c(C(=O)NCc4cccc(Cl)c4F)c1n32 [Compound 19]"
  qualifying sign: "="
  IC50 / nM: 10
- compound: "CCN1C[C@H]2C[C@H](NCc3ccccc3)c3c(C(=O)NCc4ccc(F)cc4F)c(=O)c(O)c(n32)C1=O [Compound 25]"
  qualifying sign: "="
  IC50 / nM: 28
- compound: "CCN1C[C@H]2C[C@@H](N)c3c(C(=O)NCc4ccc(F)cc4F)c(=O)c(O)c(n32)C1=O [Compound 4]"
  qualifying sign: "="
  IC50 / nM: 2
